assay: AUC in Sprague-Dawley rat plasma at 10 mg/kg, sc; type: ADME, organism-based; parameters: dose 10 mg/kg, route subcutaneous
experimental readout: AUC (ng·h/mL)

mol=CCCCCCCC(=O)CCCCCC/C=C/[C@H](C(=O)N[C@@H](Cc1ccc(-c2cccc(OC)c2)cc1)C(=O)[O-])[C@@](O)(CC(=O)[O-])C(=O)[O-].[Na+].[Na+].[Na+] measured_number=2590
mol=CCCCCCCC(=O)CCCCCC/C=C/[C@H](C(=O)N[C@@H](Cc1ccc(OCc2ccccc2)cc1)C(=O)[O-])[C@@](O)(CC(=O)[O-])C(=O)[O-].[Na+].[Na+].[Na+] measured_number=2690
mol=CC#CCOc1ccc(C[C@H](NC(=O)[C@@H](/C=C/CCCCCCC(=O)CCCCCCC)[C@@](O)(CC(=O)[O-])C(=O)[O-])C(=O)[O-])cc1.[Na+].[Na+].[Na+] measured_number=3050

* * *

system: Hepatitis C virus; experiment: Antiviral activity against HCV infected in human hepatoma cells assessed as inhibition of viral replication; assay type: functional, organism-based, Hepacivirus hominis
pIC50: −log10 of the molar value.
experimental readout: pIC50

In the examples that follow, each entry is paired with its recorded pIC50.
mol=CCCC(=O)CCCCCC/C=C/[C@H](C(=O)N[C@@H](Cc1ccc(OCCC(C)C)cc1)C(=O)O)[C@@](O)(CC(=O)O)C(=O)O measured_number=6.10
mol=CCCCCCCC(=O)CCCCCC/C=C/[C@H](C(=O)N[C@@H](Cc1ccc(OCCCC)cc1)C(=O)O)[C@@](O)(CC(=O)O)C(=O)O measured_number=8.92
mol=CCCCCC(=O)CCCCCCCC/C=C/[C@H](C(=O)N[C@@H](Cc1ccc(OCCC(C)C)cc1)C(=O)O)[C@@](O)(CC(=O)O)C(=O)O measured_number=8.85
mol=CCCCCCCC(=O)CCCCCC/C=C/[C@H](C(=O)NCCc1ccc(OCCC(C)C)cc1)[C@@](O)(CC(=O)O)C(=O)O measured_number=6.00

[I] CC(C)CCOc1ccc(C[C@H](NC(=O)[C@@H](/C=C/CCCCCCC(=O)CCC2CCCCC2)[C@@](O)(CC(=O)O)C(=O)O)C(=O)O)cc1
[II] CCCCCCCC(=O)CCCCCC/C=C/[C@H](C(=O)N[C@@H](Cc1ccc(OCCCC(C)C)cc1)C(=O)O)[C@@](O)(CC(=O)O)C(=O)O
Just tell me: smaller pIC50 value, I or II ? Kindly give the label for the entry you pick.
I

[1] CCCCCCC(=O)CCCCCC/C=C/[C@H](C(=O)N[C@@H](Cc1ccc(OCCC(C)C)cc1)C(=O)O)[C@@](O)(CC(=O)O)C(=O)O
[2] CCCCCCCC(=O)CCCCCC/C=C/[C@H](C(=O)N[C@@H](Cc1ccc(-c2cccnc2)cc1)C(=O)O)[C@@](O)(CC(=O)O)C(=O)O
[3] CCCCCCCC(=O)CCCCCC/C=C/[C@H](C(=O)N[C@@H](Cc1ccc(Oc2ccccc2)cc1)C(=O)O)[C@@](O)(CC(=O)O)C(=O)O
Kindly order the items shown according to pIC50, from the highest value down. When ranking, write the labels in the order the request describes.
3, 2, 1
(3: 8.72, 2: 8.00, 1: 7.72)

* * *

test: Cytotoxicity against human Hepatoma cells; format: cell-based
experimental readout: CC50

mol=CCCCCCCC(=O)CCCCCC/C=C/[C@H](C(=O)N[C@@H](Cc1ccc(OCCC(C)C)cc1)C(=O)O)[C@@](O)(CC(=O)O)C(=O)O experimental_readout=CC50 result="> 5 µM"
mol=CCCCCCCC(=O)CCCCCC/C=C/[C@H](C(=O)N[C@@H](Cc1ccc(OCCC)cc1)C(=O)O)[C@@](O)(CC(=O)O)C(=O)O experimental_readout=CC50 result="> 5 µM"
mol=CCCCCCCC(=O)CCCCCC/C=C/[C@H](C(=O)N[C@@H](Cc1ccc(-c2ccccc2)cc1)C(=O)O)[C@@](O)(CC(=O)O)C(=O)O experimental_readout=CC50 result="> 5 µM"
mol=CC(C)CCCCC(=O)CCCCCC/C=C/[C@H](C(=O)N[C@@H](Cc1ccc(OCCC(C)C)cc1)C(=O)O)[C@@](O)(CC(=O)O)C(=O)O experimental_readout=CC50 result="> 1 µM"
mol=CCCCCC(=O)CCCCCCCC/C=C/[C@H](C(=O)N[C@@H](Cc1ccc(OCCC(C)C)cc1)C(=O)O)[C@@](O)(CC(=O)O)C(=O)O experimental_readout=CC50 result="> 1 µM"

For `CCCCCCCC(=O)CCCCCC/C=C/[C@H](C(=O)N[C@@H](Cc1ccccc1)C(=O)O)[C@@](O)(CC(=O)O)C(=O)O` , what is its reported CC50?
13.9 µM

Looking for the measured CC50 of `CCCCCCCC(=O)CCCCCC/C=C/[C@H](C(=O)N[C@@H](Cc1ccc(Oc2ccccc2)cc1)C(=O)O)[C@@](O)(CC(=O)O)C(=O)O` , can you help?
> 5 µM

Origin of measurements: ChEMBL document CHEMBL2311448
